log(1/MIC) values by entry
tested on: Mycobacterium tuberculosis; experiment: Antitubercular activity against Mycobacterium tuberculosis BCG; assay type: functional
quantity kind: log(1/MIC)

[[record]]
molecule = "CC(C(=O)c1ccncc1)C(/C=N/N)C(=O)c1ccncc1 (centres undefined)"
tested_target = "Mycobacterium tuberculosis"
observed_result = 0.301

[[record]]
molecule = "CCC(CC)NNC(=O)c1ccncc1"
tested_target = "Mycobacterium tuberculosis"
observed_result = -0.4771

[[record]]
molecule = "CC(C)COc1ccc(/C=N/NC(=O)c2ccncc2)cc1"
tested_target = "Mycobacterium tuberculosis"
observed_result = 0.699

[[record]]
molecule = "O=C(NN=C1CCCCC1)c1cccs1"
tested_target = "Mycobacterium tuberculosis"
observed_result = -0.4771

[[record]]
molecule = "NNC(=O)Cc1ccsc1"
tested_target = "Mycobacterium tuberculosis"
observed_result = -2

[[record]]
molecule = "O=C(NNC(=O)c1cccs1)c1cccs1"
tested_target = "Mycobacterium tuberculosis"
observed_result = -1.176

[[record]]
molecule = "NNC(=O)c1ccc(O)cc1"
tested_target = "Mycobacterium tuberculosis"
observed_result = -1.079

[[record]]
molecule = "NNC(=O)CCC(=O)NN"
tested_target = "Mycobacterium tuberculosis"
observed_result = -1.398

[[record]]
molecule = "CC1CCCC(NNC(=O)c2ccncc2)C1 (centres undefined)"
tested_target = "Mycobacterium tuberculosis"
observed_result = -0.6021

[[record]]
molecule = "CCCCCC/C=N/NC(=O)c1cccs1"
tested_target = "Mycobacterium tuberculosis"
observed_result = -0.7782

[[record]]
molecule = "NNC(=O)c1cc2ccccc2o1"
tested_target = "Mycobacterium tuberculosis"
observed_result = -0.301

[[record]]
molecule = "CC(C)N(N)C(=O)c1ccco1"
tested_target = "Mycobacterium tuberculosis"
observed_result = -1.176

[[record]]
molecule = "C/C=C/CCCCCCC/C=N/NC(=O)c1ccncc1"
tested_target = "Mycobacterium tuberculosis"
observed_result = 0.8239

[[record]]
molecule = "CNC1C(OC2C(OC3C(O)C(O)C(NC(=N)N)C(O)C3NC(=N)N)OC(C)C2(O)/C=N/NC(=O)c2cccs2)OC(CO)C(O)C1O (centres undefined)"
tested_target = "Mycobacterium tuberculosis"
observed_result = 0.6021

